TEST METHOD NOTES: drug combination growth inhibition, ovarian cancer – cell-based, oncology-focused library, rucaparib conditional, profiling panel (AID 1508598)
RECORDED CONDITIONS: patient-derived ovarian cancer cells, CellTiter-Glo viability, 144 h; at 5 µM; OCI-C5x cells; with rucaparib 10 µM; 100% = cells with rucaparib alone
Calls of active or inactive are those of the source.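 Rule for the calls: active = normalized viability below 100% at a tested concentration; inactive = the rest.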
Respond with a class label; see 1 = active, -1 = inactive

Previously resolved entries follow.
COMPOUND	DISCRETE LABEL
C[C@@H](Oc1cc(-c2cnn(C3CCNCC3)c2)cnc1N)c1c(Cl)ccc(F)c1Cl	1
Cc1ccc(NC(=O)c2cccc(C(C)(C)C#N)c2)cc1Nc1ccc2ncn(C)c(=O)c2c1	-1
CCCCc1nc2cc(/C=C/C(=O)NO)ccc2n1CCN(CC)CC	1

Exercise: Answer briefly: the call reported for CC(C)C[C@H](NC(=O)CNC(=O)c1cc(Cl)ccc1Cl)B1OC(=O)CC(CC(=O)O)(C(=O)O)O1 (stereo not given in full) in this assay.
Solution: 1

Exercise: Another compound to check: Cc1nc(N)sc1-c1ccnc(Nc2ccc(N3CCOCC3)cc2)n1
Solution: -1

Exercise: Would you mind doing O=C(Cc1ccc(-c2ccc(OCCN3CCOCC3)cc2)cn1)NCc1ccccc1 as well?
Solution: 1

Exercise: What do you have for Cc1cccc(-c2[nH]c(C(C)(C)C)nc2-c2ccc3nccnc3c2)n1 ?
Solution: -1

Exercise: Continue with NC(=O)c1ccc(I)c([N+](=O)[O-])c1
Solution: -1

Exercise: What about this compound? Nc1ccn([C@@H]2O[C@H](CO)[C@@H](O)C2(F)F)c(=O)n1
Solution: 1

Exercise: Also check Cc1ccc(S(=O)(=O)Nc2nc3ccccc3nc2Nc2ccc3nsnc3c2)cc1
Solution: -1

====

TEST METHOD NOTES: viability loss in pontine glioma line – cell-based, SU-DIPG-XIII, MIPE5.0, CellTiter-Glo, qHTS, dose response (AID 1347064);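 for AC50: cells exposed to compound for 48 hours before the viability read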
RECORDED CONDITIONS: CellTiter-Glo ATP luminescence
Inconclusive results are not listed. Activity calls are given as the source filed them. Cut-off not given; nearly all actives show AC50 up to about 23 µM. Bridge positions count the residues as written; N and C are the ends. Square brackets hold non-standard residues; d marks the D form. Peptide text beside a SMILES is read from it. * marks the point of attachment. X2 = CCC(C)C(N)C1=NC(C(=O)*)CS1; dOrn = NCCC[C@@H](N)C(=O)O
Respond using exactly one of the listed classes: active, inactive

Below, 7 compounds whose answers are already recorded.
COMPOUND	DISCRETE LABEL
CCC(C)C(N)C1=NC(C(=O)N[C@@H](CC(C)C)C(=O)N[C@H](CCC(=O)O)C(=O)N[C@H](C(=O)N[C@H]2CCCCNC(=O)[C@H](CC(N)=O)NC(=O)[C@@H](CC(=O)O)NC(=O)[C@H](Cc3cnc[nH]3)NC(=O)[C@@H](Cc3ccccc3)NC(=O)[C@H]([C@@H](C)CC)NC(=O)[C@@H](CCCN)NC2=O)[C@@H](C)CC)CS1 (stereo partly drawn) (X2-L[dE]IK[dOrn]I[dF]H[dD]N; lactam 4-C)	inactive
C=C1C[C@@]2(O)O[C@@]3(C[C@H]2C(C)C)[C@@H](C)CC[C@@H]13	inactive
Cc1cc2c(F)c(Oc3ncnn4cc(OCC(C)OC(=O)C(C)N)c(C)c34)ccc2[nH]1 (stereo not drawn)	active
CN(C)c1cccc(-c2c3c(=O)n(-c4ccccc4Cl)[nH]c3cc(=O)n2C)c1	inactive
Cc1ccc(C(=O)Nc2ccc(CN3CCN(C)CC3)c(C(F)(F)F)c2)cc1C#Cc1cnc2[nH]ncc2c1	active
CNC(=O)CCc1cc(-c2ccc(-c3ccc(C(F)(F)F)cc3)cc2)n(-c2ccc(N3CCNCC3)cc2)n1	active
CNS(=O)(=O)Nc1nccc(Cc2c(C)c3ccc(Oc4ncccn4)cc3oc2=O)c1F	active

API: the following record is the query input.
Exercise: Check the results log: what was the call for O=C(Nc1ccc(-c2ccnc(Nc3ccc(N4CCOCC4)cc3)n2)cc1)C1CCCN1 (stereo not drawn) ?
Solution: active
